target: δ opioid receptor (UniProt P41143)
Starred links: 1 amine or outer side, 2 acyl side, 3 side chain; linkers in the order of their positions; H or OH if unused. Non-standard residues stand in square brackets, D forms with d. No end group written: not given here. Phe(2-(2-methyl-1-propenyl)) = CC(C)=Cc1ccccc1C[C@H](N[*:1])C(=O)[*:2]; Phe(2-Ph) = N[C@@H](Cc1ccccc1-c1ccccc1)C(=O)O; Dmt = Cc1cc(O)cc(C)c1C[C@H](N)C(=O)O
readout-label: IC50 in the mouse vas deferens (MVD) assay (nM)
Provide only the numeric value, understood in nM.

binder	unit-tag	experimental-value
[Dmt][dA][Phe(2-Ph)]G-NH2 (N-terminus assumed; SMILES Cc1cc(O)cc(C)c1C[C@H](N)C(=O)N[C@H](C)C(=O)N[C@@H](Cc1ccccc1-c1ccccc1)C(=O)NCC(N)=O) [Dmt-D-Ala-Phe(2-phenyl)-Gly-NH2]	nM	2.6
[Dmt][dA]FG-NH2 (N-terminus assumed; SMILES Cc1cc(O)cc(C)c1C[C@H](N)C(=O)N[C@H](C)C(=O)N[C@@H](Cc1ccccc1)C(=O)NCC(N)=O) [Dmt-D-Ala-Phe-Gly-NH2]	nM	1.15

# binder [Dmt][dR][Phe(2-(2-methyl-1-propenyl))]G-NH2 (N-terminus assumed; SMILES CC(C)=Cc1ccccc1C[C@H](NC(=O)[C@@H](CCCNC(=N)N)NC(=O)[C@@H](N)Cc1c(C)cc(O)cc1C)C(=O)NCC(N)=O) [Dmt-D-Arg-Phe(2-(2-methyl-1-propenyl)-Gly-NH2] ; its IC50 in the mouse vas deferens (MVD) assay = 0.63
